Kindly supply the reported inhibition values for the records listed here.
# system under test: Dual specificity protein kinase CLK2 (Homo sapiens) (UniProt P49760)
# Sequence (P49760 whole entry, looked up): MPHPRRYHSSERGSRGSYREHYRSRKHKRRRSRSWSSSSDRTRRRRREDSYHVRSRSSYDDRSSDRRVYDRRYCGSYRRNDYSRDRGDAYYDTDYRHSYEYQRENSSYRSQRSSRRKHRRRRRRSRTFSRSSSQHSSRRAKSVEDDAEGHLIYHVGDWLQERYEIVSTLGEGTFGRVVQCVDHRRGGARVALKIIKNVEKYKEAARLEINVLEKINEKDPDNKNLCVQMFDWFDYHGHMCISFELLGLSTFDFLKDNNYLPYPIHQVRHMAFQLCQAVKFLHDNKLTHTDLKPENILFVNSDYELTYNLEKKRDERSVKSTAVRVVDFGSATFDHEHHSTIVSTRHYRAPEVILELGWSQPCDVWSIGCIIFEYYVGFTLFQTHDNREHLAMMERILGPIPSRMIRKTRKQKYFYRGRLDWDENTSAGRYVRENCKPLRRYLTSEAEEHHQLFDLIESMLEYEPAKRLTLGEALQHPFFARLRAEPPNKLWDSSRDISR
# condition label: at 0.1 µM
# Description: GSK_PKIS: CLK2 mean inhibition at 0.1 uM [Nanosyn]
Numbers only, in %.

Example entries begin here.
- chem smiles: "COc1cc2c(cc1Nc1nc(Nc3ccsc3C(N)=O)c3cc[nH]c3n1)N(C(=O)CN(C)C)CCC2"
  system under test: "Dual specificity protein kinase CLK2 (Homo sapiens) (UniProt P49760)"
  attribute measured: "inhibition"
  recorded value: 15.6
- chem smiles: "Nc1nonc1-c1nc2cnccc2n1C1CCCCC1"
  system under test: "Dual specificity protein kinase CLK2 (Homo sapiens) (UniProt P49760)"
  attribute measured: "inhibition"
  recorded value: 3.99
- chem smiles: "CCn1c(-c2nonc2N)nc2c(C#CC(C)(C)O)ncc(OC[C@@H]3CCCN3)c21"
  system under test: "Dual specificity protein kinase CLK2 (Homo sapiens) (UniProt P49760)"
  attribute measured: "inhibition"
  recorded value: 1.88

Provide reported inhibition for each item, in the same order as listed.
1. CCn1c(-c2nonc2N)nc2c(C#CC(C)(C)O)ncc(OCC3CCNCC3)c21
2. NS(=O)(=O)c1ccc(-c2ccc3c(NC(=O)C4CC4)n[nH]c3c2)cc1
3. NS(=O)(=O)c1ccc(N/C=C2\C(=O)Nc3ccc4ncsc4c32)cc1

5.25
1.09
11.6

Provide reported inhibition for each item, in the same order as listed.
1. CCn1c(-c2nonc2N)nc2c(C#CCN)ncc(OCCCN)c21
2. COc1cc(C=NNc2ncnc3c2cnn3Cc2ccccc2)ccc1O

1.13
-0.27
